# Test Target: T1, Biotin sY51 PSGL-1(42-62) peptide (human, sulfotyrosine at Y51; C-terminal Lys-biotin)
# T1 construct: also called Y51(SO3) PSGL-1(42-62)
# T1 peptide: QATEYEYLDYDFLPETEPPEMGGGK
# Method: capture ELISA; against 3 x sY peptide
Please respond with reported EC50/EC50 3x(SO3)Y for every item in the list.

Q) Tell us which EC50/EC50 3x(SO3)Y value is on record for 20I15 (antibody, V domains shown, From mouse immunisation; only variable domains given; also called 20115) VH: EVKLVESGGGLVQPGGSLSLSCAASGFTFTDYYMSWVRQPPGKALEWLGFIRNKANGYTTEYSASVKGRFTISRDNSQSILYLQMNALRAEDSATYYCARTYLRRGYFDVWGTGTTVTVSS VL: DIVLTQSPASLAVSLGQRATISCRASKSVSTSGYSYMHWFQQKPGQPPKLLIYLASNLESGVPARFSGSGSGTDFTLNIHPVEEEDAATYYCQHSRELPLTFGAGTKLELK
A) ~10 fold

Q) Tell us which EC50/EC50 3x(SO3)Y value is on record for 10F01 (antibody, IgG4, V domains shown) VH: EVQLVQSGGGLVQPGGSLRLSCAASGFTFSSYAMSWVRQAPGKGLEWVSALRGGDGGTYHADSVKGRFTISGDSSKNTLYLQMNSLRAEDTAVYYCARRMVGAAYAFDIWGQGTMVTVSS VL: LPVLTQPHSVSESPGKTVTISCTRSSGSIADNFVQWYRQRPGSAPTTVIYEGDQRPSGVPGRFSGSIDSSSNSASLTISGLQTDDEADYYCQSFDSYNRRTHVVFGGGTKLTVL
A) ~36 fold

Q) Tell us which EC50/EC50 3x(SO3)Y value is on record for PSG3 (antibody, V domains shown, Control anti-PSGL-1 mAb; only variable domains given) VH: QVQLVQSGAEVKKPGSSVRVSCKASGGSFSSYGIHWVQQAPGQGLEWMGRIIPVLRIRNYAQKFHDRVTIDADTSTGTAYMELSSLTSDDTAVYYCAGSRQGVAPTGYWGQGTMVTVSS VL: QAVLTQPSSLSASPGASASLTCNLRSGIDVGTYRIYWYQQKPGSPPQYLLRYKSDSDKQQGSGVPSRFSGTKDASANAGILLISGLQSEDEADYYCMIWHSNGWVFGGGTKLTVL
A) ~6 fold

Q) Tell us which EC50/EC50 3x(SO3)Y value is on record for 03D07 (antibody, IgG4, V domains shown) VH: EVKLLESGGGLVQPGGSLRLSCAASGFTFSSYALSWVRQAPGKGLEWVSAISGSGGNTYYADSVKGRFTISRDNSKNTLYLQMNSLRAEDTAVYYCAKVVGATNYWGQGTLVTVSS VL: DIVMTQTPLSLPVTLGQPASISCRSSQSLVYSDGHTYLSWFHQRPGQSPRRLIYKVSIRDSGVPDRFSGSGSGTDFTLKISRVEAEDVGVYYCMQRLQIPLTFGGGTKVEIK
A) ~5 fold
